Tested on: redroot pigweed (Amaranthus retroflexus)
experiment notes: Test G Pre-Emergence Protocol
Format: in vivo
measurement context: 15.625 g ai/ha, evaluated after 13 days
Excerpt: Seeds of corn (Zea mays), giant foxtail (Setaria faberi), barnyardgrass (Echinochloa crus-galli), ivy-leaved morning glory (Ipomoea hederacea), redroot pigweed (Amaranthus retroflexus) and velvetleaf (Abutilon theophrasti) were sown in standard soil in pots. […]
The following compounds are shown together with reported Pigweed, Redroot damage rating (100=total damage to plant; 0=no damage to plant) values.
metric name: Pigweed, Redroot damage rating (100=total damage to plant; 0=no damage to plant)

INSERT INTO assay_data (compound, val) VALUES
  ('Cc1cccc(NC(=O)[C@H]2C(=O)N(C)C[C@@H]2c2ccc(C(F)(F)F)cc2)c1S(C)(=O)=O (racemic) [Compound 1677]', 0),
  ('Cc1nc(Cl)ccc1[C@@H]1CN(C)C(=O)[C@H]1C(=O)Nc1cccc(F)c1F [Compound 1463]', 0),
  ('COc1c(Cl)ccc([C@H]2CN(C)C(=O)[C@@H]2C(=O)Nc2cccc(F)c2F)c1F [Compound 1773]', 20),
  ('CN1CC(c2ccc(C(F)(F)F)cc2)C(C(=O)Nc2cccc(Cl)c2[N+](=O)[O-])C1=O (racemic) [Compound 1639]', 0);
